Origin of values: patent US20260193326A1

Please respond with reported koff for every item in the list.
ASSAYED SYSTEM: T1, AAV8
T1 construct: also called adeno-associated virus serotype 8
PROCEDURE DETAILS: SPR, AAV on CM5 chip;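 also: surface plasmon resonance with AAV amine-coupled to the chip as ligand, nanobodies injected as analyte over a concentration series, rate constants and affinity fitted from binding curves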
Hi! Could you send only the number? It should be in s⁻¹, unit omitted.

Look up koff for this binder: A4-047 (VHH) VHH: VQLQESGGGLVQPGGSLRLSCAASGSRFSINTMGWYRQAPGKQRELVATVTRGGSTNYAGSVKGRFTISRDNAKNTVYLQMNSLRPEDTAVYYCHVDEVRQSSWTTSNLWGQGTQVTVSS
2e-05

Look up koff for this binder: A4-021 (VHH) VHH: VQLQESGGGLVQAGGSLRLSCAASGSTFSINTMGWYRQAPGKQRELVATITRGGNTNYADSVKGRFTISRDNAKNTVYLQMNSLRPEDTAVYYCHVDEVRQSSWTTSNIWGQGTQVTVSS
0.00155

Look up koff for this binder: A4-026 (VHH) VHH: VQLQESGGGLVQPGGSLRLSCAASGSNFRINTMGWYRQAPGKQRELVAPVTRGGSTNYADSVKGRFTISRDNAKNTVYLQMNSLRPEDTAVYYCHVDEVRESSWTTSNLWGQGTQVTVSS
0.00184

Look up koff for this binder: A4-031 (VHH) VHH: VQLQESGGGLVQPGGSLRLSCAASGSGFSINTMGWYRQAPGKQRELVATVTSAGSTNYAGSVKGRFTISRDNAKNTVYLQMNSLRPEDTAVYYCHVDEIRQSSWTTSNLWGQGTQVTVSS
0.00923
